These data points were gathered from patent US5508311A.

experimental system: UniProt P21396
Sequence (P21396 1-526): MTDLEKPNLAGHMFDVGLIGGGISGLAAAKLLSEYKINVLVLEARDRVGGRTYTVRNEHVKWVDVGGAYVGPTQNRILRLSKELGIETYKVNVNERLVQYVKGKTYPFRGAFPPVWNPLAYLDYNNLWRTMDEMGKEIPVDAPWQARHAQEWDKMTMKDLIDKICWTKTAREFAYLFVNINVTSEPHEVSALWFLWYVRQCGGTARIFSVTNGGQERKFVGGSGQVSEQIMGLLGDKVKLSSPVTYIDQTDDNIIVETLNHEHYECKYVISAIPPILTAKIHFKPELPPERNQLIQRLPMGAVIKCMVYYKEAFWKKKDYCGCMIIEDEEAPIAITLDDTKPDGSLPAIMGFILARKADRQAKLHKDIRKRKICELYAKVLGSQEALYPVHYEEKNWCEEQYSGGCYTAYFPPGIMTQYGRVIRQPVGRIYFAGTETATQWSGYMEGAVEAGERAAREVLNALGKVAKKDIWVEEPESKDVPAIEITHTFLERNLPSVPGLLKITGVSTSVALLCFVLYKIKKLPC
protocol summary: biochemical
Type: biochemical
test parameters: read-out: 5-HT IC50
Protocol: The aliphatic propargylamine inhibitors (from 1×10^-10 M to 1×10^-4 M) were preincubated with the MAO for 20 min. at ambient room temperature and then the residual enzyme activities were determined by addition of the substrates, followed by further incubation at 37° C. for 30 min. The enzymatic reactions were terminated by the addition of citric acid and the aldehyde products were extracted with toluene: ethyl acetate (1:1, v/v) and the radio-activities assessed in a scintillation counter.

{"columns": ["compound", "IC50 (µM)"],
 "data": [
  ["C#CCN(C)C(C)CCCCCCCCCC.Cl (stereo not shown) [Example 2-DdMP, N-(2-dodecyl)-N-methylpropargylamine-HCl]", 2]
]}
